target entity: LsrK (Salmonella typhimurium)
Sequence (Q8ZKQ6 whole entry): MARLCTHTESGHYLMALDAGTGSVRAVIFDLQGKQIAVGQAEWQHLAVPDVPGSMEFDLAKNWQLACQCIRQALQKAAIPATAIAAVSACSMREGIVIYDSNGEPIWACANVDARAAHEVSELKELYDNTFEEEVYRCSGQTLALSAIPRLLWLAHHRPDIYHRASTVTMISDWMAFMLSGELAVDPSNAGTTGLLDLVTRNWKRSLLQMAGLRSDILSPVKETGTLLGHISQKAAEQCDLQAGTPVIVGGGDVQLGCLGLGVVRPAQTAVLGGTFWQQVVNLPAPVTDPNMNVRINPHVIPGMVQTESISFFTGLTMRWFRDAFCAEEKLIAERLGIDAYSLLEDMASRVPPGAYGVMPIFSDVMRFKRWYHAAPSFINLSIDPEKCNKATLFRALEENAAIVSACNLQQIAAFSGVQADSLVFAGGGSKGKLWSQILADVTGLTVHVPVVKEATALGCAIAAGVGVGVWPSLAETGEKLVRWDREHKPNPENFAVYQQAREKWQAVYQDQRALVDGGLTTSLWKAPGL
assay details: biochemical
Assay type: biochemical, S. typhimurium
Exercise: state measured inhibition at 50 µM for each of the molecules provided.
Give bare numbers, in %.

Could you report inhibition at 50 µM for every entry in the following list?
1. Cc1onc(-c2c(Cl)cccc2Cl)c1C(=O)N[C@@H]1C(=O)N2[C@@H]1SC(C)(C)[C@@H]2C(=O)O [DICLOXACILLIN SODIUM]
2. CC1(C)C(=O)C=C[C@]2(C)[C@H]3CC[C@@]4(C)[C@H](c5ccoc5)OC(=O)[C@H]5O[C@]54[C@]3(C)C(=O)C[C@@H]12
3. Oc1cc(O)c2c(c1)O[C@H](c1ccc(O)c(O)c1)[C@H](O)C2 [EPICATECHIN]

a:
1. 0
2. 2
3. 2

src = paper PMC6627609
